system: Bel-7404 (human liver carcinoma) cells; assay: MTT antiproliferative assay, Bel-7404; format: cell-based; conditions: MTT assay; mean of three independent determinations; read-out: Cytotoxicity IC50 Bel-7404
Measurement label: pIC50
Schema: pIC50 number; meaning minus log10 of the concentration expressed in molar units.

### Prompt I'd like to know its pIC50. The compound in question is CC12CCC3c4ccc(O)cc4CCC3C1CCC2=[N+]1NC(N)=[S+][Pt-2]1([Cl])[Cl] (stereo not shown) [Compound 3, [PtL ^2 Cl 2]]
### Response 4.41

----------
tested on: HeLa (human cervical carcinoma) cells; test: MTT antiproliferative assay, HeLa; format: cell-based; conditions: MTT assay; mean of three independent determinations; read-out: Cytotoxicity IC50 HeLa
Measurement label: IC50 (µM)
# output: bare number, implied unit µM

### Prompt I'd like to know its IC50. The molecule in question is CC12CCC3c4ccc(O)cc4CCC3C1CCC2=[N+]1NC(N)=[S+][Pt-2]1([Cl])[Cl] (stereo not shown) [Compound 3, [PtL ^2 Cl 2]]
### Response 23
